Reference source for all entries: patent US9513294B2

assay: Absorbance and fluorescence emission spectra (SpectraMax M2); type: physicochemical; details: BDCCA library, Table 4
Reported metric: λmax Absorp. (nm)
Please respond with the number in nm and leave the unit unwritten.

Use these answered entries as a reference point.
[[record]]
molecule = "CCc1ccc(-c2cn(-c3ccc4n3[B-](F)(F)[N+]3=C(N5CCCCC5)C=CC3=C4c3ccc(NC(=O)CCl)cc3)nn2)cc1"
measured_number = 464

[[record]]
molecule = "CC(C)(C)c1cn(-c2ccc3n2[B-](F)(F)[N+]2=C(N4CCCCC4)C=CC2=C3c2ccc(NC(=O)CCl)cc2)nn1"
measured_number = 468

[[record]]
molecule = "O=C(CCl)Nc1ccc(C2=C3C=CC(N4CCCCC4)=[N+]3[B-](F)(F)n3c2ccc3-n2cc(CC3CCCCC3)nn2)cc1"
measured_number = 468

[[record]]
molecule = "CN(C)Cc1cn(-c2ccc3n2[B-](F)(F)[N+]2=C(N4CCCCC4)C=CC2=C3c2ccc(NC(=O)CCl)cc2)nn1"
measured_number = 461

[[record]]
molecule = "O=C(CCl)Nc1ccc(C2=C3C=CC(N4CCCCC4)=[N+]3[B-](F)(F)n3c2ccc3-n2cc(-c3cc(C(F)(F)F)cc(C(F)(F)F)c3)nn2)cc1"
measured_number = 458

[[record]]
molecule = "CCCCCCCCCCc1cn(-c2ccc3n2[B-](F)(F)[N+]2=C(N4CCCCC4)C=CC2=C3c2ccc(NC(=O)CCl)cc2)nn1"
measured_number = 466


Entry "CC(C)Cc1cn(-c2ccc3n2[B-](F)(F)[N+]2=C(N4CCCCC4)C=CC2=C3c2ccc(NC(=O)CCl)cc2)nn1" needs its λmax Absorp. filled in; supply it. 466

Entry "COc1ccc2cc(-c3cn(-c4ccc5n4[B-](F)(F)[N+]4=C(N6CCCCC6)C=CC4=C5c4ccc(NC(=O)CCl)cc4)nn3)ccc2c1" needs its λmax Absorp. filled in; supply it. 464

Entry CCCC(C)c1cn(-c2ccc3n2[B-](F)(F)[N+]2=C(N4CCCCC4)C=CC2=C3c2ccc(NC(=O)CCl)cc2)nn1 (racemic) needs its λmax Absorp. filled in; supply it. 467

Entry "CCCCc1cn(-c2ccc3n2[B-](F)(F)[N+]2=C(N4CCCCC4)C=CC2=C3c2ccc(NC(=O)CCl)cc2)nn1" needs its λmax Absorp. filled in; supply it. 467

Entry "O=C(CCl)Nc1ccc(C2=C3C=CC(N4CCCCC4)=[N+]3[B-](F)(F)n3c2ccc3-n2cc(C3CC3)nn2)cc1" needs its λmax Absorp. filled in; supply it. 467

Entry "O=C(CCl)Nc1ccc(C2=C3C=CC(N4CCCCC4)=[N+]3[B-](F)(F)n3c2ccc3-n2cc(C3CCCCC3)nn2)cc1" needs its λmax Absorp. filled in; supply it. 467
